biological target: recombinant cynomolgus Aggrecan G1-IGD-G2 (cynomolgus); test: periplasmic extract ELISA
value kind: OD 450 nm

(Q) For the binder shown here, C0101PMP114F08 (VHH, not shown: large carriers) VHH: EVQLVESGGGLVQAGGSLRLSCAASGSTFIINVVRWYRRTPGKQRELVATISSGGNANYVDSVRGRFSISRDGAKNAVDLQMNGLKPEDTAVYYCNVPTTHYGGVYYGPYWGQGTQVTVSS , give the reported OD 450 nm.
(A) 2.32 OD 450 nm

(Q) What about C0101PMP604F02 (VHH, not shown: large carriers) VHH: DVQLVESGGGLVQPGGSLRLSCAASGRTFSSYTMGWFRQAPGKEREFVAAISWSGGRTYYADSVKGRFTISRDNSKNTVYLQMNSLRPEDTAVYYCAAYRRRRASSNRGLWDYWGQGTLVTVSS ?
(A) 1.37 OD 450 nm

Reference for the values: patent US20200140532A1
